In this section, each of the compounds is paired with its reported TGI.
tested on: DU-145 prostate; test: NCI tumour cell line growth inhibition, 48 h

CN(C)CCNC(=O)c1cc2c3cc(Cl)ccc3[nH]c2c2ncccc12 : 12.7 µM
COc1cc(CN=c2nc(N(C)C)ss2)cc(OC)c1OC : > 10 µM
CN(C)CCNc1ccc(NCC[N+](C)(C)Cc2ccc([N+](=O)[O-])cc2)c2c1C(=O)c1c(O)ccc(O)c1C2=O : > 100 µM
Cc1c(Cl)cccc1C(=O)Nc1nc2c(s1)CN(C(=O)Nc1cccc(C(F)(F)F)c1)CC2 : > 50 µM
C=CCOC(=O)Cn1cnc2c(N)ncnc21 : > 100 µM

[ask] In one line, give reported TGI of the entry Cc1cn2cc(-c3cccs3)nc2s1 .
[reply] > 100 µM

[ask] In one line, give reported TGI of the entry O=C(CCCc1ccc(N(CCCl)CCCl)cc1)NCc1ccccc1 .
[reply] 56.6 µM

[ask] In one line, give reported TGI of the entry C#CCOC(=O)C(N)CC(N)=O (stereo unspecified) .
[reply] > 100 µM

[ask] In one line, give reported TGI of the entry C=CCc1cccc(C=O)c1O .
[reply] > 100 µM

[ask] In one line, give reported TGI of the entry Clc1ccc(Cc2nc3ccccc3o2)cc1 .
[reply] > 100 µM

[ask] In one line, give reported TGI of the entry O=C1c2cc(Br)ccc2-c2ccc3c4ccc5c6c(ccc(c7ccc1c2c73)c64)C(=O)c1cc(Br)ccc1-5 .
[reply] > 100 µM

* * *

test system: EKVX NSCLC; assay: NCI tumour cell line growth inhibition, 48 h; in the data active = GI50 below about 0.43 µM; inactive = the rest
// allowed return values: active, inactive

COc1ccc(C2=NN(C(N)=S)C(c3ccc4c(c3)OCO4)C2)cc1 (stereo unspecified) : inactive
Cc1cc(I)cc(CNCCN(C)C)c1O : inactive
NS(=O)(=O)c1ccc(N(/C=C/C(=O)C(F)(F)F)CC(=O)c2ccc(F)cc2)cc1 : inactive
N#CC1=C(N)Oc2c(sc3c(Br)cccc23)C1c1ccc([N+](=O)[O-])cc1 (stereo unspecified) : inactive
O=C1NN2CC(c3ccccc3)=NN=C2c2ccccc21 : inactive

[ask] For CCN(Cc1ccc(OC)cc1)c1ccc(CO)c(Cl)c1 , which call appears in the assay record?
[reply] inactive

[ask] For CN(C)CCNC(=O)c1cc2c3cc(Cl)ccc3[nH]c2c2ncccc12 , which call appears in the assay record?
[reply] inactive

[ask] For O=C(O)c1ccc(N(/C=C/C(=O)C(F)(F)F)Cc2ccc(Cl)cc2)cc1 , which call appears in the assay record?
[reply] inactive

[ask] For Cc1c(Cl)cccc1C(=O)Nc1nc2c(s1)CN(C(=O)Nc1cccc(C(F)(F)F)c1)CC2 , which call appears in the assay record?
[reply] active

[ask] For C/C(=C\C(=O)O[C@H]1[C@@H]2[C@H](C)CC[C@H]2[C@]2(C)O[C@@]1(C1CCCCC1)C[C@H]2OC(=O)CO)c1ccccc1 , which call appears in the assay record?
[reply] inactive

[ask] For Sc1cccc2cccnc12 , which call appears in the assay record?
[reply] inactive

[ask] For CCN1CCN(CCC(=O)Nc2cccc(-n3cc(-c4ccncc4)c(-c4ccc(Cl)c(OC)c4)n3)c2)CC1 , which call appears in the assay record?
[reply] inactive

[ask] For O=C(CCCc1ccc(N(CCCl)CCCl)cc1)NCc1ccccc1 , which call appears in the assay record?
[reply] inactive

[ask] For O=C(N/N=C/c1ccc(Cl)cc1)c1ccc(NC(=O)c2ccccn2)cc1 , which call appears in the assay record?
[reply] inactive

[ask] For COC(=O)c1c2c(c(C)[n+]([O-])c1C)C(=O)C(NCc1ccc(OC)cc1)=CC2=O , which call appears in the assay record?
[reply] inactive

[ask] For CC[C@@]1(OP(=O)(O)O)C(=O)OCc2c1cc1n(c2=O)Cc2cc3ccccc3nc2-1 , which call appears in the assay record?
[reply] inactive

* * *

system: NCI/ADR-RES ovarian; experiment: NCI tumour cell line growth inhibition, 48 h
Recorded metric: TGI

Worked examples follow.
O=C1C=C(Nc2ccccc2)c2ccccc2C1=O : 8.82 µM
O=C(NCc1cn(Cc2cccc(Oc3ccccc3)c2)nn1)c1cccnc1Nc1ccc(F)cc1 : > 100 µM
COC(=O)[C@@H](C)C[C@H](Cc1ccccc1)NC(=O)c1nc([C@@H](C[C@H](C(C)C)N(C)C(=O)[C@@H](NC(=O)[C@H]2C[C@H](O)CCN2C)C(C)C)OC(C)=O)sc1C(C)C : > 11.1 µM

[ask] Given CCCCNC(=O)OCCN=c1c2ccccc2ccc2ccccc12 , report its TGI on NCI/ADR-RES ovarian.
[reply] > 100 µM

[ask] Given C=CC(=O)NCCC(=O)OCn1cc(F)c(=O)[nH]c1=O , report its TGI on NCI/ADR-RES ovarian.
[reply] > 100 µM

[ask] Given C/C=C1/CC(C(=O)OC)N(C(=O)OCc2ccccc2)C1=S (stereo unspecified) , report its TGI on NCI/ADR-RES ovarian.
[reply] > 100 µM

* * *

system: 786-0 renal; assay: NCI tumour cell line growth inhibition, 48 h; in the data active means GI50 below about 0.43 µM; inactive means the rest
// allowed return values: active, inactive

COc1ccc(C2=NN(C(N)=S)C(c3ccc4c(c3)OCO4)C2)cc1 (configuration not stated) : inactive

[ask] For C/C(=C\C(=O)O[C@H]1[C@@H]2[C@H](C)CC[C@H]2[C@]2(C)O[C@@]1(C1CCCCC1)C[C@H]2OC(=O)CO)c1ccccc1 , which call appears in the assay record?
[reply] inactive

[ask] For CC(C)=CC[C@@H]1CC2(CC=C(C)C)C(=O)C(OC3(C(=O)c4ccccc4)C(=O)C4(CC=C(C)C)C[C@@H](CC=C(C)C)C(C)(C)C(CC=C(C)C)(C4=O)C3=O)(C(=O)c3ccccc3)C(=O)C(CC=C(C)C)(C2=O)C1(C)C (some centres not stated) , which call appears in the assay record?
[reply] inactive

[ask] For Nc1ccc(/C=C/c2ccc3ncccc3c2)cc1 , which call appears in the assay record?
[reply] inactive

[ask] For O=C([CH-]C(=O)c1ccccc1)c1ccccc1.O=C([CH-]C(=O)c1ccccc1)c1ccccc1.O=C([CH-]C(=O)c1ccccc1)c1ccccc1.[Ga+3] , which call appears in the assay record?
[reply] inactive

* * *

In this section, each of the compounds is paired with its reported TGI.
system: MOLT-4 leukemia; assay: NCI tumour cell line growth inhibition, 48 h
Please state the figure in µM; there is no need to write the unit.

COC(=O)c1c2c(c(C)[n+]([O-])c1C)C(=O)C(NCc1ccc(OC)cc1)=CC2=O : 6.63
COCCN(C(=O)c1ccccc1)C1CCC2(SCCS2)c2[nH]c3ccccc3c21 (configuration not stated) : 69.4
C=C(Br)C(C)(Cl)CCC(Br)C(C)(C)Br (configuration not stated) : 83.1
CN(C)CCNc1ccc(NCC[N+](C)(C)Cc2ccc([N+](=O)[O-])cc2)c2c1C(=O)c1c(O)ccc(O)c1C2=O : 8.8
CCN1CCN(CCC(=O)Nc2cccc(-n3cc(-c4ccncc4)c(-c4ccc(Cl)c(OC)c4)n3)c2)CC1 : 5.76

[ask] In one line, give reported TGI of the entry O=C(CCCc1ccc(N(CCCl)CCCl)cc1)NCc1ccccc1 .
[reply] 11.6

[ask] In one line, give reported TGI of the entry CN1CCN(c2cc3[nH]c4cc(O)cc(O)c4c(=O)c3cc2N)CC1 .
[reply] 4.58

[ask] In one line, give reported TGI of the entry CC(C)(C)N(Cc1ccccc1)C(=O)/C=C\S(=O)c1ccccc1 (configuration not stated) .
[reply] 7.39

[ask] In one line, give reported TGI of the entry CC(=O)CCC#Cc1ccccc1C(=O)C(C)=[N+]=[N-] .
[reply] 85.4

[ask] In one line, give reported TGI of the entry O=C1C=C(Nc2ccccc2)c2ccccc2C1=O .
[reply] 9.47

[ask] In one line, give reported TGI of the entry Cc1ccc(N)c(S)c1 .
[reply] 47

* * *

In this section, each of the compounds is paired with its reported TGI.
test system: COLO 205 colon; assay: NCI tumour cell line growth inhibition, 48 h
Please state the figure in µM; there is no need to write the unit.

Worked examples follow.
CC(=O)c1ccc(Br)cc1NC1=CC(=O)c2ncccc2C1=O : 11.4
CC[C@@]1(OP(=O)(O)O)C(=O)OCc2c1cc1n(c2=O)Cc2cc3ccccc3nc2-1 : 5.64
CSC(=S)CC(O)[C@@H]1CC2c3ccccc3C1c1ccccc12 (some centres undefined) : 36.4

[ask] In one line, give reported TGI of the entry C/C(=N/NC(=O)c1ccccc1S(N)(=O)=O)C(CN1CCCCC1)C(C1=C(O)C2C=CC=CC2OC1=O)c1ccccc1 (centres undefined) .
[reply] 41.3

[ask] In one line, give reported TGI of the entry O=C(CCc1nnc2s/c(=C\c3ccc([N+](=O)[O-])cc3)c(=O)n12)Nc1ccc(Cl)c(Cl)c1 .
[reply] 82.9

[ask] In one line, give reported TGI of the entry COc1cc2c(c3oc(-c4ccc(O)cc4)c(O)c(=O)c13)CCC(C)(C)O2 .
[reply] 5.02
